Field: Ki. Provide a value for each of the compounds that follow.
study target: human A2B receptors (hA2B) (Homo sapiens)
Construct: expressed in transfected cells; host or cells: HEK-293 (HEK-A2B, G418-selected)
Sequence (P29275 whole entry): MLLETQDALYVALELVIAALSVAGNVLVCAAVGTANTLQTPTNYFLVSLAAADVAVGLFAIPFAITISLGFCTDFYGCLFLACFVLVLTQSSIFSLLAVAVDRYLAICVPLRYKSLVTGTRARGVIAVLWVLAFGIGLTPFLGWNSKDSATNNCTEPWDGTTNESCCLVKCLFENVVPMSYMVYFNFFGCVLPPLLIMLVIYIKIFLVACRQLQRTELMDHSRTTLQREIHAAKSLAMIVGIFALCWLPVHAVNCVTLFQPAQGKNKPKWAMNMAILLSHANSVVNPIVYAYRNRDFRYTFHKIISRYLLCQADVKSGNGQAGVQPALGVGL
experimental protocol: Radioligand binding ([125I]ABOPX / [3H]ZM241385) at human A2B receptors expressed in HEK-293 cells
condition: Table 4; unmarked value, first of two binding assays; read-out: hA2B Ki
Please give a number only; it is taken to be in nM.

q: Which Ki value is on record for CCCn1c(=O)c2[nH]c(-c3ccc(OCC(=O)NN4C(=O)C[C@H](NC(=O)C(F)(F)F)C4=O)cc3)nc2n(CCC)c1=O ?
a: 30.2

q: Which Ki value is on record for CCCn1c(=O)c2[nH]c(-c3ccc(OCC(=O)NN4C(=O)C(c5ccccc5)=C(c5ccccc5)C4=O)cc3)nc2n(CCC)c1=O ?
a: 27.9

q: Which Ki value is on record for CCCn1c(=O)c2[nH]c(-c3ccc(OCC(=O)NN4C(=O)C5=C(CCCC5)C4=O)cc3)nc2n(CCC)c1=O ?
a: 35.8

q: Which Ki value is on record for CCCn1c(=O)c2[nH]c(-c3ccc(OCC(=O)NN4C(=O)C=C(C)C4=O)cc3)nc2n(CCC)c1=O ?
a: 144

q: Which Ki value is on record for CCCn1c(=O)c2[nH]c(-c3ccc(OCC(=O)NNC(=O)[C@H](CCC(=O)O)NC(=O)C(F)(F)F)cc3)nc2n(CCC)c1=O ?
a: 24.8

q: Which Ki value is on record for CCCn1c(=O)c2[nH]c(-c3ccc(OCC(=O)NN4C(=O)C5=C(CCC5)C4=O)cc3)nc2n(CCC)c1=O ?
a: 21.5
